Target: Vitamin K-dependent gamma-carboxylase (Rattus norvegicus) (UniProt O88496)
Sequence (O88496 whole entry): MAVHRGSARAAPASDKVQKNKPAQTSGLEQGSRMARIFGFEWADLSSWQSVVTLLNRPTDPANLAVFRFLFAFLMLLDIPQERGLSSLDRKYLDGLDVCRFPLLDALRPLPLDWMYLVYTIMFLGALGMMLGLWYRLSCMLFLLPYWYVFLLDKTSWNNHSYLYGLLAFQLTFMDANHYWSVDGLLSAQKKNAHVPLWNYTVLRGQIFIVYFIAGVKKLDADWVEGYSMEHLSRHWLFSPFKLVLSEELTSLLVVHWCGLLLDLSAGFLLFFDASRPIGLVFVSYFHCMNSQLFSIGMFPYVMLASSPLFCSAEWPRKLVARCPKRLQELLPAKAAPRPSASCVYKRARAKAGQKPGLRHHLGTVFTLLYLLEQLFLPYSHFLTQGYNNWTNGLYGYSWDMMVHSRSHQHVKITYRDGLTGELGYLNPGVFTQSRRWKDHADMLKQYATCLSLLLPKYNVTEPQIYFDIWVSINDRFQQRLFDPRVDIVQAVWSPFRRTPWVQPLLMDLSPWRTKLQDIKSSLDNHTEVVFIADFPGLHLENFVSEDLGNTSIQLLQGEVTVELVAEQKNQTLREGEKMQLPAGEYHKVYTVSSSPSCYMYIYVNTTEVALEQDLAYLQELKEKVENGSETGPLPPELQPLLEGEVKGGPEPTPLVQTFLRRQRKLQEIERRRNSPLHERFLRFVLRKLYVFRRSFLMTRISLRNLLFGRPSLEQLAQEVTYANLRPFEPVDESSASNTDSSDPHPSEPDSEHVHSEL
Assay: Compound was evaluated as substrates for vitamin K dependent carboxylase and percent CO2 incorporation was determined at 0.25 mM concentrations
Type: functional
Field: Incorporation. Provide a value for each of the molecules that follow.
Give bare numbers, in %.

record smiles: CC(C)C[C@H]1NC(=O)[C@H](N)CSSC[C@@H](C(=O)O)NC(=O)[C@@H](C)NC(=O)[C@@H](CCC(=O)O)NC(=O)[C@H](CCC(=O)O)NC1=O
uom: %
Incorporation: 63
--
record smiles: CC(C)C[C@H]1NC(=O)[C@H](N)CSSC[C@@H](C(=O)O)NC(=O)[C@H](C)NC(=O)[C@@H](CCC(=O)O)NC(=O)[C@H](CCC(=O)O)NC1=O
uom: %
Incorporation: 50
--
record smiles: CC(C)C[C@H](NC(=O)[C@H](C)N)C(=O)N[C@@H](CCC(=O)O)C(=O)N[C@@H](CCC(=O)O)C(=O)N1CCC[C@@H]1C(=O)N[C@@H](C)C(=O)O
uom: %
Incorporation: 14
--
record smiles: CC(C)C[C@H]1NC(=O)[C@H](N)CSSC[C@@H](C(=O)O)NC(=O)[C@@H]2CCCN2C(=O)[C@@H](CCC(=O)O)NC(=O)[C@H](CCC(=O)O)NC1=O
uom: %
Incorporation: 7.5

// next item, Incorporation requested
# lookup: `COC(=O)[C@@H]1CSSC[C@@H](NC(C)=O)C(=O)N[C@H](CC(C)C)C(=O)N[C@@H](CCC(=O)O)C(=O)N[C@H](CCC(=O)O)C(=O)N2CCC[C@H]2C(=O)N1` on Vitamin K-dependent gamma-carboxylase (Rattus norvegicus) (UniProt O88496), Incorporation = 3.3

----------
Assay: Carboxylation of 0.25 mM Phe-Leu-Glu-Glu-Leu at a concentration of 1 mM
Type: functional
measure name: Incorporation (%)
Answers are plain numbers, in %.

record smiles: CC(C)C[C@H]1NC(=O)[C@H](N)CSSC[C@@H](C(=O)O)NC(=O)[C@@H](C)NC(=O)[C@@H](CCC(=O)O)NC(=O)[C@H](CCC(=O)O)NC1=O
Incorporation, %: 94
--
record smiles: CC(C)C[C@H](NC(=O)[C@H](C)N)C(=O)N[C@@H](CCC(=O)O)C(=O)N[C@@H](CCC(=O)O)C(=O)N1CCC[C@@H]1C(=O)N[C@@H](C)C(=O)O
Incorporation, %: 99
--
record smiles: COC(=O)[C@@H]1CSSC[C@@H](NC(C)=O)C(=O)N[C@H](CC(C)C)C(=O)N[C@@H](CCC(=O)O)C(=O)N[C@H](CCC(=O)O)C(=O)N2CCC[C@H]2C(=O)N1
Incorporation, %: 51
--
record smiles: CC(C)C[C@H]1NC(=O)[C@H](N)CSSC[C@@H](C(=O)O)NC(=O)[C@H](C)NC(=O)[C@@H](CCC(=O)O)NC(=O)[C@H](CCC(=O)O)NC1=O
Incorporation, %: 103

Please look at the following molecule next.
Incorporation measured on `CC(C)C[C@H]1NC(=O)[C@H](N)CSSC[C@@H](C(=O)O)NC(=O)[C@@H]2CCCN2C(=O)[C@@H](CCC(=O)O)NC(=O)[C@H](CCC(=O)O)NC1=O` = 98

----------
Target: Vitamin K-dependent gamma-carboxylase (Rattus norvegicus) (UniProt O88496)
Experiment: Compound was evaluated as substrates for vitamin K dependent carboxylase and percent CO2 incorporation was determined at 1 mM concentrations
Format: functional
Response field label: string, one of y (Incorporation strictly below 20%) or n.

Worked cases, answers included:
record smiles: COC(=O)[C@@H]1CSSC[C@@H](NC(C)=O)C(=O)N[C@H](CC(C)C)C(=O)N[C@@H](CCC(=O)O)C(=O)N[C@H](CCC(=O)O)C(=O)N2CCC[C@H]2C(=O)N1
cat: y
--
record smiles: CC(C)C[C@H]1NC(=O)[C@H](N)CSSC[C@@H](C(=O)O)NC(=O)[C@@H](C)NC(=O)[C@@H](CCC(=O)O)NC(=O)[C@H](CCC(=O)O)NC1=O
cat: n
--
record smiles: CC(C)C[C@H](NC(=O)[C@H](C)N)C(=O)N[C@@H](CCC(=O)O)C(=O)N[C@@H](CCC(=O)O)C(=O)N1CCC[C@@H]1C(=O)N[C@@H](C)C(=O)O
cat: y
--
record smiles: CC(C)C[C@H]1NC(=O)[C@H](N)CSSC[C@@H](C(=O)O)NC(=O)[C@@H]2CCCN2C(=O)[C@@H](CCC(=O)O)NC(=O)[C@H](CCC(=O)O)NC1=O
cat: y

API: the following record is the query input.
Report whether reported Incorporation is lower than 20% (strictly) for `CC(C)C[C@H]1NC(=O)[C@H](N)CSSC[C@@H](C(=O)O)NC(=O)[C@H](C)NC(=O)[C@@H](CCC(=O)O)NC(=O)[C@H](CCC(=O)O)NC1=O`
n
